Biological target: OsWOX13 (Oryza sativa, UniProt Q5QMM3 1-267)
Sequence: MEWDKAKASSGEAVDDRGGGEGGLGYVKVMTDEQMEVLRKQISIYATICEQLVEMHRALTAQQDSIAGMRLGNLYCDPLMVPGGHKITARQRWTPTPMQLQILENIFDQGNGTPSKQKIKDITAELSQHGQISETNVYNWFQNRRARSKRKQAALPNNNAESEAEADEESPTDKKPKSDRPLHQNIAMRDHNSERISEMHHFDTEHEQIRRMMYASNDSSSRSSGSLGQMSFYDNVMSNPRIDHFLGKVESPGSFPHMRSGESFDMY
Test: protein-binding microarray (RPBM); PBS, 2% BSA, 51.3 ng/ul salmon testes DNA, 50 uM zinc acetate, 200 nM TF, 25 C, 1 h; high values mean tight binding
Conditions: protein: recombinant; tags: N-terminal polyhistidine and DsRed monomer fusion (pET32a); label: CyDye5-dUTP incorporated in the synthesized complementary strand; 3' TTTTT single-stranded linker to array surface; dsDNA, one strand shown
In all, about 35,000 sequences were measured (“fluorescence intensity (a.u.)”: median about 10,000, highest 2% from about 52,000 on). The full list was thinned out, with the highest values kept by preference.
// values below are reported binding signal
property.label: binding signal

>>> result("AAGTTTCAAAATTTAAATTTTGACCGCATGCAGCTGATAACGGAGTCACCTAGTGCAG")
"4610 fluorescence intensity (a.u.)"
>>> result("GGTGGATGAGAATGGATTGAATGAAAACAACAACATATTACGGAGTCACCTAGTGCAG")
"7970 fluorescence intensity (a.u.)"
>>> result("ATATATATATATATATATATACATACATATACACACACACCGGAGTCACCTAGTGCAG")
"7300 fluorescence intensity (a.u.)"
>>> result("TATTAATTGATGCGATTTAAATTATCTTTGGTCTTGATGTCGGAGTCACCTAGTGCAG")
"50000 fluorescence intensity (a.u.)"
>>> result("GTTAGATTAGATTGGTACCTCATGTTACCTCGTACCTCATCGGAGTCACCTAGTGCAG")
"55700 fluorescence intensity (a.u.)"
>>> result("GGGTGTGTAAGGGTAGGTGGAGGGGTGGGTGATGCGAGATCGGAGTCACCTAGTGCAG")
"4470 fluorescence intensity (a.u.)"
>>> result("AAAATTTGTCAATAAATATATAGGCAGTCCCGGTCCGTTCCGGAGTCACCTAGTGCAG")
"4490 fluorescence intensity (a.u.)"
>>> result("TGTCTGACTGACTGACTGGCTGCTGCTGCTGCTCATTCCTCGGAGTCACCTAGTGCAG")
"23800 fluorescence intensity (a.u.)"

The measured values listed here are drawn from paper PMC7819943.
